// compounds with reported Ki on Sodium-dependent serotonin transporter (Homo sapiens, UniProt P31645), multi-publication

input: Recorded Ki for "Cc1cccc(Cl)c1Oc1cccc(F)c1OC1CNC1" , please?
output: > 4.61 µM

input: Consider the compound "CNCCCN(c1ccccc1)c1ccc(OCCN2CCCC2)cc1" and give its measured Ki.
output: > 0.07 µM

input: If you can, please state the reported Ki value of "N#Cc1cc(F)cc(C#Cc2csc(F)n2)c1" .
output: > 10 µM

input: Which Ki value belongs to COc1ccc(C2=NN(CCCCCBr)C(=O)[C@@H]3CC=CC[C@H]23)cc1OC (racemic) ?
output: > 100 µM
